Ki for assorted compounds
tested.on: human recombinant bradykinin B1 receptor (Homo sapiens)
Construct: host or cells: CHO cells, clone hB1-A5
Sequence (P46663 whole entry): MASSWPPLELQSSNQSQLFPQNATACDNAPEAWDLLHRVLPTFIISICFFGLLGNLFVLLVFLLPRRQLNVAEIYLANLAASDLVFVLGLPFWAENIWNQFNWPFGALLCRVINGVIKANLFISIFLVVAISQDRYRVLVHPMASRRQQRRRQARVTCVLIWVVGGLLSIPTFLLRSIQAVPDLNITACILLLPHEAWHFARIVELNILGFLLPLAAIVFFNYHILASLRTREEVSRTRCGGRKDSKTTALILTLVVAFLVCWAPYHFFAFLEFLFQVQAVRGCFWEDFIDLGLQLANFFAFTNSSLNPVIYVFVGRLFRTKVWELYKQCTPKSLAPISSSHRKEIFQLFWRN
procedure.text: Human recombinant bradykinin B1 receptor competitive radioligand binding
details: hB1 expressed in CHO cells, [3H]-[Des-Arg10] Kallidin radioligand; read-out: B1 binding

Reported Ki ( COc1cc(C(=O)NC2(C(=O)NCc3ccc(-n4c(-c5noc(C)n5)c(Cl)c5cc(F)ccc54)cn3)CC2)on1 ) = < 20 nM

Sure, the documented Ki for Cc1nc(-c2c(Cl)c3ccccc3n2-c2ccc(CNC(=O)C3(NC(=O)C=Cc4ccoc4)CC3)cc2)no1 is < 20 nM

Ki recorded for this compound, COc1cccc(C(=O)NC2(C(=O)NCc3ccc(-n4c(-c5noc(C)n5)c(Cl)c5ccccc54)cc3)CC2)c1 , is < 20 nM

Query COc1cc(C(=O)NC2(C(=O)NCc3ccc(-n4c(-c5noc(C)n5)c(C#N)c5ccccc54)cc3)CC2)on1 yields Ki of < 20 nM

Per the record, Cc1nc(-c2c(Cl)c3ccccc3n2-c2ccc(CNC(=O)C3(NC(=O)c4cccc(F)c4)CC3)cc2)no1 has Ki of < 20 nM

The compound Cc1nc(-c2c(Cl)c3ccccc3n2-c2ccc(CNC(=O)C3(NC(=O)c4cccc(C(F)(F)F)c4)CC3)cc2)no1 showed Ki equal to 20 to 100 nM

// Ki lookup, compound = COc1ccc2c(c1)c(Cl)c(C#N)n2-c1ccc(CNC(=O)C2(NC(=O)c3cc(OC)no3)CC2)cc1 , result: < 20 nM

Ki in this record for Cc1nc(-c2c(Cl)c3ccccc3n2-c2ccc(CNC(=O)C3(NC(=O)C4CC4C)CC3)cc2)no1 (stereo not shown) : < 20 nM

Form field Ki, entry NC(=O)c1c(Cl)c2ccccc2n1-c1ccc(CNC(=O)C2(NC(=O)C(F)(F)F)CC2)cc1 : 100 to 500 nM
